experimental_target: T1, ZFP SBS#728 (synthetic)
T1 chain: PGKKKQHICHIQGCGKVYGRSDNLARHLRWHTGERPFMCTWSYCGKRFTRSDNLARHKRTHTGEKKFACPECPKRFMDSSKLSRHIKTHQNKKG
method_notes: EMSA
test_settings: tags: MBP fusion
pKd: −log10 of the molar value.
measured_parameter: pKd

binder	number
GGTGAGGAGT (dsDNA) DNA 1: GGTGAGGAGT DNA 2: ACTCCTCACC	7.82

# credit: patent US20030068675
